experiment: A qHTS for Small Molecule Inhibitors of Shiga Toxin; conditions: Vero cells, Shiga toxin protein synthesis inhibition reporter; at 38.7 µM, active compounds read high; also: 0% is about no effect
About 27,000 (9.3%) of roughly 290,000 compounds were called active. The sample as a whole holds a higher share of actives than the screen did.
inhibition for assorted compounds
Answer with a number only, understood to be in %.

>  <Compound>
CC(C)CN(C(=O)c1cccc(S(=O)(=O)N2CCCCC2)c1)C1CCS(=O)(=O)C1 (stereo not given)

>  <Uom>
%

>  <Numeric result>
-6.54

$$$$

Give inhibition for the following compound: COc1ccc(NC(=O)c2sc3nc(C)nc(N4CCN(c5ccccn5)CC4)c3c2C)c(OC)c1 -5.19

Give inhibition for the following compound: Cc1ccnc(N2C(=O)c3ccccc3C2Nc2ccc3c(c2)OCCO3)c1 (stereo not given) 162

Attribution: PubChem BioAssay AID2315
